Reported pIC50 values for the following compounds.
# Tested System: Dipeptidyl peptidase 4 (Homo sapiens)
# Sequence (P27487 whole entry): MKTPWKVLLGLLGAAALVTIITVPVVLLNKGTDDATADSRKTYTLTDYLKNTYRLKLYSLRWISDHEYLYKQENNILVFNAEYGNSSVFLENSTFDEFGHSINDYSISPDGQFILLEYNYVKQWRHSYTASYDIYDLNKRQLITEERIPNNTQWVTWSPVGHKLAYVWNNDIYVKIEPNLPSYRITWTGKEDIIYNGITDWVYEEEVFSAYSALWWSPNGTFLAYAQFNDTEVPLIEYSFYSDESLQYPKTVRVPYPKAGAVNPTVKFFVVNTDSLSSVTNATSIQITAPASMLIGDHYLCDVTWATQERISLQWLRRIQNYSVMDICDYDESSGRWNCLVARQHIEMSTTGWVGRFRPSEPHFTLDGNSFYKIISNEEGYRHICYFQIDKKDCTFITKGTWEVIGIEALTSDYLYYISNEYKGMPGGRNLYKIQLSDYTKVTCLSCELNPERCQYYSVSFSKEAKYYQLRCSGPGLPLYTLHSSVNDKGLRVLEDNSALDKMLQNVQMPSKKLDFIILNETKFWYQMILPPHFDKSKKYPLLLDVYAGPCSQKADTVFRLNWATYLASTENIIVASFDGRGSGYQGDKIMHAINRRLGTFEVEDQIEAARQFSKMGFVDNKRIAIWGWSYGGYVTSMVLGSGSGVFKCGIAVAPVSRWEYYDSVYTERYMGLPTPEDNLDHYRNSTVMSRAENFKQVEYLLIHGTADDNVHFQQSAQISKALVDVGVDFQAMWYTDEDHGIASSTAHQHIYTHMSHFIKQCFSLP
# Assay Name: Inhibition of human DPP-4 using H-Gly-Pro-para-Nitroanilide as substrate incubated for 20 mins prior to substrate addition measured after 30 mins by spectrophotometry
# Reported Conditions: read-out: IC50
Please keep in mind that pIC50 is minus log10 of the molar concentration; only the number is needed.

# Compound, Val
data = [
    ("CCn1c(=O)c(C(C)(NN)Nc2ccc(C)cc2)c(O)c2ccccc21 (centres undefined)", 5.53),
    ("Cn1c(=O)c(C(C)(NN)Nc2ccccc2)c(O)c2ccccc21 (centres undefined)", 6.14),
]

[ask] Requested read-out: pIC50. Entry: Cc1ccc(=N)n(Cc2cccc(F)c2)c1
[reply] 4.46
